biological target: human α7 receptor (Homo sapiens, UniProt P36544); experiment: α7 NNR flux assay (FDSS Ca assay, positive allosteric modulation of acetylcholine response); conditions: human α7 receptor stably expressed in rat GH4C1 cells; acetylcholine 20 μM; % modulation relative to PNU-120596 set to 100%
Sequence (P36544 23-502): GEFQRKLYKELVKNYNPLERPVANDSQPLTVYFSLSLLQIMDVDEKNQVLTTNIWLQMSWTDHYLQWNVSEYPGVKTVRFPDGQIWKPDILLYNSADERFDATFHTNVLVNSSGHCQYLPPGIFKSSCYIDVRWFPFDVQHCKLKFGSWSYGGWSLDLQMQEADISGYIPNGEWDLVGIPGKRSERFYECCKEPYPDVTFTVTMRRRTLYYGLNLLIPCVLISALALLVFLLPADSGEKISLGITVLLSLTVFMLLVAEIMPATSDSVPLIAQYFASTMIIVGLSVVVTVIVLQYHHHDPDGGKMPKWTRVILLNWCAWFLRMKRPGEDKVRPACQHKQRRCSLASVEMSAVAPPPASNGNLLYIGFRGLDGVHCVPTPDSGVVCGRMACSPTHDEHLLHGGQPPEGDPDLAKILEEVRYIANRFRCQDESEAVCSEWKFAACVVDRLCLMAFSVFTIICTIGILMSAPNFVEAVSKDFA
pEC50: −log10 of the molar value.
Observable: pEC50

# example entries with known answers
[[record]]
smiles_input = "Cc1cc(C(=O)Nc2cnccc2C)c2c(C)nn(-c3ccccc3)c2n1"
endpoint_result = 5.21

[[record]]
smiles_input = "Cc1ccc(-n2nc(C)c3c(C(=O)Nc4c(C)ccnc4C)cc(C)nc32)cc1"
endpoint_result = 5.60

[[record]]
smiles_input = "COc1ccc(-n2nc(C)c3c(C(=O)Nc4c(C)ncnc4C)cc(C)nc32)cc1"
endpoint_result = 5.31

[[record]]
smiles_input = "COc1ccc(-n2nc(C)c3c(C(=O)Nc4c(C)ccnc4C)cc(C)nc32)cn1"
endpoint_result = 5.26

[[record]]
smiles_input = "COc1cc(C)ncc1NC(=O)c1cc(C)nc2c1c(C)nn2-c1ccccc1"
endpoint_result = 5.29

[[record]]
smiles_input = "COc1ccc(-n2nc(C)c3c(C(=O)Nc4cncnc4C)cc(C)nc32)cc1"
endpoint_result = 5.34

[[record]]
smiles_input = "COc1ccc(-n2nc(C)c3c(C(=O)Nc4cnccc4C)cc(C)nc32)cc1"
endpoint_result = 5.29

[[record]]
smiles_input = "Cc1cc(C(=O)Nc2cccnc2C)c2c(C)nn(-c3ccccc3)c2n1"
endpoint_result = 5.25

[[record]]
smiles_input = "COc1ccc(-n2nc(C)c3c(C(=O)Nc4c(C)cc(C)nc4C)cc(C)nc32)cc1"
endpoint_result = 5.19

[[record]]
smiles_input = "Cc1cc(C(=O)Nc2c(C)ccnc2C)c2c(C)nn(-c3ccc(O)cc3)c2n1"
endpoint_result = 5.02


a = COc1ccc(-n2nc(C)c3c(C(=O)Nc4c(C)ccnc4C)cc(C)nc32)cc1
b = Cc1cc(C(=O)Nc2c(C)ccnc2C)c2c(C)nn(-c3ccc(C#N)cc3)c2n1
c = Cc1cc(C(=O)Nc2c(C)ccnc2C)c2c(C)nn(-c3ccc(OC(F)(F)F)cc3)c2n1
d = COc1ccc(-n2nc(C)c3c(C(=O)Nc4c(C)ccnc4OC)cc(C)nc32)cc1
### Prompt Write the entries in order, lowest recorded pEC50 first. State the ranking by listing the labels in the requested order.
### Response c, b, a, d

====

biological target: human α7 receptor (Homo sapiens); construct: host or cells: rat GH4C1 cell line; test: α7 NNR flux assay (FDSS Ca assay, positive allosteric modulation of acetylcholine response); assay type: cell-based; conditions: human α7 receptor stably expressed in rat GH4C1 cells; acetylcholine 20 μM; % modulation relative to PNU-120596 set to 100%
pEC50: −log10 of the molar value.
Observable: pEC50

# example entries with known answers
[[record]]
compound = "Cc1cc(C(=O)Nc2c(C)ccnc2C)c2c(C)nn(-c3ccc(N(C)C)cc3)c2n1 [Compound 23]"
endpoint_result = 5.44

[[record]]
compound = "Cc1cc(C(=O)Nc2c(C)ccnc2C)c2c(C)nn(-c3cncnc3)c2n1 [Compound 26]"
endpoint_result = 4.96

[[record]]
compound = "COc1ccccc1-n1nc(C)c2c(C(=O)Nc3c(C)ccnc3C)cc(C)nc21 [Compound 4]"
endpoint_result = 5.15


a = Cc1cc(C(=O)Nc2c(C)ccnc2C)c2c(C)nn(-c3ccc(F)cc3)c2n1 [Compound 13]
b = Cc1cc(C(=O)Nc2c(C)ccnc2C)c2c(C)nn(-c3ccccc3)c2n1 [Compound 2]
### Prompt Problem: Given the entries a and b , determine which has the lower reported pEC50. Selection: enter the item's label.
### Response a
(a: 5.11, b: 5.44)

Reference source: patent US20130005743A1
